The origin of these recorded values is patent US20250197368A1.

Target: human α2β3γ2 GABAARs (benzodiazepine site) (Homo sapiens (Human), UniProt P18507+P47869)
Sequence (P47869 29-451): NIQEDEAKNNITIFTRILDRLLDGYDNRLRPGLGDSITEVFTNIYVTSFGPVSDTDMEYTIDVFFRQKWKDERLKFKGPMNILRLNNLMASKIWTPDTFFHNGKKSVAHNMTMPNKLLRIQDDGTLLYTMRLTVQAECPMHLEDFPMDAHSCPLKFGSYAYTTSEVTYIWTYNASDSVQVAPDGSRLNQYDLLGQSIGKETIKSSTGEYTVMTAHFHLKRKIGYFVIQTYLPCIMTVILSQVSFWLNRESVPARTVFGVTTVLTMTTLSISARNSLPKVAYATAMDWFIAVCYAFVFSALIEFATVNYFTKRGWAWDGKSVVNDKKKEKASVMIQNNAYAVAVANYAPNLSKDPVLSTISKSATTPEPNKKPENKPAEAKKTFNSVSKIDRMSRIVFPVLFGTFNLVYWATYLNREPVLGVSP
Sequence (P28472 26-473 partner): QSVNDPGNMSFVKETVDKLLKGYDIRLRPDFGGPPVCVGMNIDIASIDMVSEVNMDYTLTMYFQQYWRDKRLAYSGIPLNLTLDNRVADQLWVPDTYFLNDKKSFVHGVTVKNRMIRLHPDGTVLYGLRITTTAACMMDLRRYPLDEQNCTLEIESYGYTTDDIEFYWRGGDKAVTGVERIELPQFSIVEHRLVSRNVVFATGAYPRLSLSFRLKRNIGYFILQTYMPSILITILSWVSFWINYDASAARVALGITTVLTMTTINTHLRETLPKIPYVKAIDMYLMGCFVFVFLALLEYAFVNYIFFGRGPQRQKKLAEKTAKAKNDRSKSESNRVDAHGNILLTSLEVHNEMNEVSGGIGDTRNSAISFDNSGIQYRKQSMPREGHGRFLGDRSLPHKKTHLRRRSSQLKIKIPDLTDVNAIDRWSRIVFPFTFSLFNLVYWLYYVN
Sequence (P18507 40-475): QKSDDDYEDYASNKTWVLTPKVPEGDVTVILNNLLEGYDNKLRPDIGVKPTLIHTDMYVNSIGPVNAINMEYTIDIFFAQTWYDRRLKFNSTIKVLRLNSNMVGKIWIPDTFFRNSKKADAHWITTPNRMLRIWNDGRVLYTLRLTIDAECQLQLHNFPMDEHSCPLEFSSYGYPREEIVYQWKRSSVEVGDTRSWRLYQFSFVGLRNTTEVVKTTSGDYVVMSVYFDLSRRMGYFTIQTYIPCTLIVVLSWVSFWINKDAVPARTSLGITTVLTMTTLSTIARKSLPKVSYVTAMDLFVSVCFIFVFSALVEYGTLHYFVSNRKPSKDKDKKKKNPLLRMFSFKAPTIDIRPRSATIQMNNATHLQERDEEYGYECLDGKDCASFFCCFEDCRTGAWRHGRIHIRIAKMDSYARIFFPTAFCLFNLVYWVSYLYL
Assay: In vitro radioligand binding assay ([3H]Ro15-1788 displacement), α2-GABAAR Ki
Entries and their Ki
Only the number, expressed in nM, is required.

Input `CCCNC(=O)c1c(N)c2cccc(-c3c(F)cccc3F)c2[nH]c1=O` . Output Ki: 0.21

// recorded Ki for `CCCNC(=O)c1c(N)c2cccc(-c3cnccc3OCC)c2[nH]c1=O` : 21.5

For this molecule ( `CCCNC(=O)c1c(N)c2cccc(-c3nc(C)[nH]c3C)c2[nH]c1=O` ), measured Ki is 6.61

Per the records, this molecule ( `CCCNC(=O)c1c(N)c2cccc(-c3cc(Cc4ncn(CC)n4)ccc3F)c2[nH]c1=O` ) has Ki equal to 1.29

The recorded Ki for `CCCNC(=O)c1c(N)c2cccc(-c3ccc(CO)nc3)c2[nH]c1=O` is 4.76
